target: CYP2C19 (Homo sapiens); construct: tissue Eurofins Cerep (CRO); host or cells: human liver microsomes; assay: CYP inhibition in human liver microsomes; format: in vitro ADME; details: read-out: CYPs inhibition CYP2C19
Sequence (P33261 whole entry): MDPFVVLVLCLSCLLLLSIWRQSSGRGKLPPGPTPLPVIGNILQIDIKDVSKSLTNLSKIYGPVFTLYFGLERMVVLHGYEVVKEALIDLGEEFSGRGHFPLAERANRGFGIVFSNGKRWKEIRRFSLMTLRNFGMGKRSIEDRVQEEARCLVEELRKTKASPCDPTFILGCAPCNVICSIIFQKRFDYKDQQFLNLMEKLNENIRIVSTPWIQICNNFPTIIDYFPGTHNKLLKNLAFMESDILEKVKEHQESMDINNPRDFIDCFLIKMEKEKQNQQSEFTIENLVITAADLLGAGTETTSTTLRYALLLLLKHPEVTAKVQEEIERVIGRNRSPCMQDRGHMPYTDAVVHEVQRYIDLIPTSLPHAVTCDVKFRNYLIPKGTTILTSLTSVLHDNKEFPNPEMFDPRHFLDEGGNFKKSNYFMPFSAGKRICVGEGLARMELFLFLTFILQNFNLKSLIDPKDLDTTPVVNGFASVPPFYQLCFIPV
Assign inhibition at 10 µM to each entry below.
Answer format: value, then unit.

compound="O=C(NCCCNCc1ccccc1)c1ccc(Cl)cc1 [compound 7i-deMe]" measurement_target="CYP2C19 (Homo sapiens)" experimental_value=18.4%

Now consider a different compound.
Recall and state the measured inhibition at 10 µM for CN(CCCNC(=O)c1ccc(Cl)cc1)Cc1ccccc1 [compound 7i] .
36.5%

---

biological target: P-gp (Homo sapiens, UniProt P08183); construct: in the Caco-2 cell line with and without verapamil; host or cells: Caco-2; test: P-gp substrate assessment, Caco-2 with and without verapamil; format: in vitro ADME; settings: human, pH 7.4; Caco-2, 10 µM, PBS (no verapamil); read-out: P-gp substrate, PBS, B/A pH7.4/7.4
Sequence (P08183 whole entry): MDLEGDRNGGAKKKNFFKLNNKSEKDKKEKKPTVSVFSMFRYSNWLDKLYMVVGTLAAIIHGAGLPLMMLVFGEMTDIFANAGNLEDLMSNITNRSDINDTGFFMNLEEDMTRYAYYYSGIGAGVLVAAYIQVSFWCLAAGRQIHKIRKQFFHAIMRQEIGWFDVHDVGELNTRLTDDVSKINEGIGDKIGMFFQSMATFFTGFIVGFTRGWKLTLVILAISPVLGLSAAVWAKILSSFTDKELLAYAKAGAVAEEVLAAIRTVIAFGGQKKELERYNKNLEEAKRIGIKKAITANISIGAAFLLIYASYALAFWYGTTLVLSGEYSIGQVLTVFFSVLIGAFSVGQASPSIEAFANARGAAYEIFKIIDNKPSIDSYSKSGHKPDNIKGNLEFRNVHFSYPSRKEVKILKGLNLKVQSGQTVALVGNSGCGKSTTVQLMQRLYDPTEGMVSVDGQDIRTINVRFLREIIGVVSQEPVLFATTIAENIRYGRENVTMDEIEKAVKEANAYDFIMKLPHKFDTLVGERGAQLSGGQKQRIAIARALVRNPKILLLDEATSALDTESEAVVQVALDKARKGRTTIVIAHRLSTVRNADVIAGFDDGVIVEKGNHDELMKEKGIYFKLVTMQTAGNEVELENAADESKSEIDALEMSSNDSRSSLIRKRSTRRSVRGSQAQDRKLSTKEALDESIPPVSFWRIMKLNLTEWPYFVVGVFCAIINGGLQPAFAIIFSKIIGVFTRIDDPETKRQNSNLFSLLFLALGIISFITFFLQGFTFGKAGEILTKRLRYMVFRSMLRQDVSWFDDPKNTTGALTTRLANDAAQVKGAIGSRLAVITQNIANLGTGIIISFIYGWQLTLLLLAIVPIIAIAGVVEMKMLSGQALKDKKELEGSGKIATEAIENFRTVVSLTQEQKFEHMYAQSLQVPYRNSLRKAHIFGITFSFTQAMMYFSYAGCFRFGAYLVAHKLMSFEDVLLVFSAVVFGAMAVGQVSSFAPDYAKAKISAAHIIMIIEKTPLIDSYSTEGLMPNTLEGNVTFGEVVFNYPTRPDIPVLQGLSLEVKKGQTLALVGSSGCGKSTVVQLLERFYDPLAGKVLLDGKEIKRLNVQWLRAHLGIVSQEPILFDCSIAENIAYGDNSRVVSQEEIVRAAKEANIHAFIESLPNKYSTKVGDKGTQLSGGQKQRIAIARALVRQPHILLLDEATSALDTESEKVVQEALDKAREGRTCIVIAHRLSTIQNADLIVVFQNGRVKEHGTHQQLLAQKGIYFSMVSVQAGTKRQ
parameter: Papp B→A at 10 µM (×10⁻⁶ cm/s)
Numbers only, in ×10⁻⁶ cm/s.

Recall and state the measured Papp B→A at 10 µM for CN(CCCNC(=O)c1ccc(Cl)cc1)Cc1ccccc1 .
11.7

---

assay: Solubility, shake-flask method; type: physicochemical; conditions: simulated gastric fluid (SGF), simulated gastric fluid, thermodynamic from solid; read-out: Solubility SGF
parameter: solubility (µM)
Give bare numbers, in µM.

input_smiles=O=C(NCCCNCc1ccccc1)c1ccc(Cl)cc1 experimental_value=197

Recall and state the measured solubility for CN(CCCNC(=O)c1ccc(Cl)cc1)Cc1ccccc1 .
193

---

biological target: S2R (Homo sapiens, UniProt Q5BJF2)
Sequence (Q5BJF2 whole entry): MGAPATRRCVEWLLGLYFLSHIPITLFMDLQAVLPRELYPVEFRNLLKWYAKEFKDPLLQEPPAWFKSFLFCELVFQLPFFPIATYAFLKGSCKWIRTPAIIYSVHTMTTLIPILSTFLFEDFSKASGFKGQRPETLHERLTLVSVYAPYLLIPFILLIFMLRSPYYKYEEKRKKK
pKi: −log10 of the molar value.
parameter: pKi

Recall and state the measured pKi for O=C(NCCCNCc1ccccc1)c1ccc(Cl)cc1 .
< 6.00

---

test: Pharmacokinetic study in plasma and brain; assay type: in vivo, male C57BL/6 mice; details: male, C57BL/6, mouse, brain, po, 1 mg/kg, at 30 min
parameter: Kp at 0.5 h

Recall and state the measured Kp at 0.5 h for CN(CCCNC(=O)c1ccc(Cl)cc1)Cc1ccccc1 .
3

---

Test: Plasma stability
Assay type: in vitro ADME
Conditions: male, CD-1, mouse, 37 °C, read-out: Plasma t½ (converted)
Description: Plasma stability analyses were performed by M2SV (Lille, France). Incubations were performed in duplicate. […] After vigorous agitation and centrifugation (10 min at 10,000 rpm), the supernatants were analyzed. The degradation half-life (t1/2) values were calculated in minutes and hours via non-linear regression analysis using Microsoft® XLfit® Excel add-in from IDBS Ltd, Woking, UK.
parameter: half-life at 10 µM

compound="O=C(NCCCNCc1ccccc1)c1ccc(Cl)cc1 [compound 7i-deMe]" experimental_value="23 h"

Now consider a different compound.
Recall and state the measured half-life at 10 µM for CN(CCCNC(=O)c1ccc(Cl)cc1)Cc1ccccc1 [compound 7i] .
> 24 h

---

test: Bidirectional permeability in Caco-2 (pH 6.5/7.4); format: in vitro ADME, human; conditions: human, Caco-2, pH 6.5, Papp(B-A)/Papp(A-B), pH 6.5/7.4; read-out: e-ratio (efflux ratio)
parameter: efflux ratio at 10 µM
Answers are plain numbers.

Recall and state the measured efflux ratio at 10 µM for O=C(NCCCNCc1ccccc1)c1ccc(Cl)cc1 .
1.7

---

experiment: Pharmacokinetic study in plasma and brain; format: in vivo, male C57BL/6 mice; conditions: male, C57BL/6, mouse, brain, po, 1 mg/kg, p.o., brain, read-out: Brain tmax
parameter: Tmax

Recall and state the measured Tmax for CN(CCCNC(=O)c1ccc(Cl)cc1)Cc1ccccc1 .
≤ 30 min
